Field: N-term FLAG. Provide a value for each of the molecules that follow.
- Subject Of Test: T1, B3GNT2 (Homo sapiens, UniProt Q9NY97)
- T1 construct: The respective ORFs of candidate genes [CD274 (NM_014143), MCL1 (NM_021960), JUNB (NM_002229), and B3GNT2 (NM_006577)] were synthesized; expressed in transfected cells; host or cells: A375 melanoma cells (lentiviral ORF overexpression)
- T1 sequence (Q9NY97 1-397): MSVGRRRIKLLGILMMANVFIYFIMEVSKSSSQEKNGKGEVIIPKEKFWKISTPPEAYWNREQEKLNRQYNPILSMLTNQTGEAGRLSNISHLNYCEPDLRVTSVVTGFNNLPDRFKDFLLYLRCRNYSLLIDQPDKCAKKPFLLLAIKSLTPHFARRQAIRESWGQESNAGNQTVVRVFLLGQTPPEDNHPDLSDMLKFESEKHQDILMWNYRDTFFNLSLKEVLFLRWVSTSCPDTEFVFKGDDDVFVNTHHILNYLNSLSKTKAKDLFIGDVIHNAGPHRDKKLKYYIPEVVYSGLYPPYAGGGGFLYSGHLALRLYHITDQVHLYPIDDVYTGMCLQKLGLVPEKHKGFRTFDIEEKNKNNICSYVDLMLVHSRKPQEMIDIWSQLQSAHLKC
- Experiment: Co-IP of FLAG-tagged B3GNT2 followed by mass spectrometry
- Format: cell-based
- Conditions Used: Co-IP with FLAG antibody, N-terminally FLAG-tagged B3GNT2; mass spectrometry count, unit not given
Numbers only.

Solved cases below.
Molecule	N-term FLAG
PRR4 (protein) QSTDNDVNYEDFTFTIPDVEDSSQRPDQGPQRPPPEGLLPRPPGDSGNQDDGPQQRPPKPGGHHRHPPPPPFQNQQRPPRRGHRQLSLPRFPSVSLQEASSFFQRDRPARHPQEQPLW	2
CSRP1 (protein) MPNWGGGKKCGVCQKTVYFAEEVQCEGNSFHKSCFLCMVCKKNLDSTTVAVHGEEIYCKSCYGKKYGPKGYGYGQGAGTLSTDKGESLGIKHEEAPGHRPTTNPNASKFAQKIGGSERCPRCSQAVYAAEKVIGAGKSWHKACFRCAKCGKGLESTTLADKDGEIYCKGCYAKNFGPKGFGFGQGAGALVHSE	0

Now look at this entry.
input: State the recorded N-term FLAG for this entry: HSD17B12 (protein) MESALPAAGFLYWVGAGTVAYLALRISYSLFTALRVWGVGNEAGVGPGLGEWAVVTGSTDGIGKSYAEELAKHGMKVVLISRSKDKLDQVSSEIKEKFKVETRTIAVDFASEDIYDKIKTGLAGLEIGILVNNVGMSYEYPEYFLDVPDLDNVIKKMININILSVCKMTQLVLPGMVERSKGAILNISSGSGMLPVPLLTIYSATKTFVDFFSQCLHEEYRSKGVFVQSVLPYFVATKLAKIRKPTLDKPSPETFVKSAIKTVGLQSRTNGYLIHALMGSIISNLPSWIYLKIVMNMNKSTRAHYLKKTKKN
output: 10
